Biological target: T1, rSEZ6-ECD-His (rat, UniProt Q7TSK2 20-922 (mouse entry))
T1 construct: the whole entry is named; also called rat recombinant SEZ6-His; rat SEZ6 ECD
T1 chain: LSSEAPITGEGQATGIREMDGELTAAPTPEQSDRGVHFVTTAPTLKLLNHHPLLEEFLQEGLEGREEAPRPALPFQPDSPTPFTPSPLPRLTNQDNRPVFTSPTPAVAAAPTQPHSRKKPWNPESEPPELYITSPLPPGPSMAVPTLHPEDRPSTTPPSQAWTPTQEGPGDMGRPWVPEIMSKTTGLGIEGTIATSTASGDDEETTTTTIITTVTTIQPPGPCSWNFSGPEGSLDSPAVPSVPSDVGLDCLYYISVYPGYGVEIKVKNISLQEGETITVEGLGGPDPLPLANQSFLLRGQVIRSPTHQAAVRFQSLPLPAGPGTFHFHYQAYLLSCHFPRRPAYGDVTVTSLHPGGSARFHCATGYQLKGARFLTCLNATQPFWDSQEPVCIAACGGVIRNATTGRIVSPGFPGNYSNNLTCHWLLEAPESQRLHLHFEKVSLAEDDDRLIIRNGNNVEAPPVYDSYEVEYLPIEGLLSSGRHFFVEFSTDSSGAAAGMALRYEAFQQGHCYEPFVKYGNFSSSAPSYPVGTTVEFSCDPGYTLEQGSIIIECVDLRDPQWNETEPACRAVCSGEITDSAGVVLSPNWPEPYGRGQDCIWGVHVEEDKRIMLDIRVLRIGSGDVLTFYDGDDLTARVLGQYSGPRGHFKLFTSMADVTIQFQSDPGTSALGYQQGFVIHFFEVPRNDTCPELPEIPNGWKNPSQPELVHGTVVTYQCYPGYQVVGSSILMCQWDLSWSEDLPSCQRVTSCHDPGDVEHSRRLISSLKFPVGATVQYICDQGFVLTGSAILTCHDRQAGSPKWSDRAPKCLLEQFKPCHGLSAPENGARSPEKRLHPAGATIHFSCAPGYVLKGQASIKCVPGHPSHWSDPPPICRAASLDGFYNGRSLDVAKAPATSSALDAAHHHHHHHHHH
Assay: bio-layer interferometry (ForteBio RED) or surface plasmon resonance (Biacore 2000) on rat SEZ6-His; the table does not say which; column Rat XR (Kd, nM)
pKd: −log10 of the molar value.
measurement label: pKd

1. SC17.34 (antibody, V domains shown, murine mAb) VH: EVQLQQSGPELVKPGSSVKISCKASGYTFTDYNMDWVKQSHGKRLEWIGYIYPDNGGAGYNQKFKGKATLTVDKSSSTAYMELRSLTSEDSAVYYCSRSITTAWFAYWGQGTLVTVSA VL: DIKMTQSPSSMYASLGERVTITCKASQDINSYLSWFQQKPGKSPKTLIYRANRLVDGVPSRFSGSGSGQDYSLTISSLEYEDMGIYYCLQYDEFPPTFGGGTKLEIK	7.10
